# key: entry, value: Bliss excess
- Test system: P12-ICHIKAWA (T-Lymphoblastic Leukemia)
- protocolNotes: Bliss excess, mean over the matrix (fraction); higher = more synergy;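 note: after 72 h of two-drug dosing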
Answer field: number only, no words.

Consider the reported Bliss excess for these molecules:
INSERT INTO assay_data (molecule, endpointvalue) VALUES
  ('NC1(C(=O)N[C@@H](CCO)c2ccc(Cl)cc2)CCN(c2ncnc3[nH]ccc23)CC1 [Capivasertib] + Cn1cnc2c(F)c(Nc3ccc(Br)cc3Cl)c(C(=O)NOCCO)cc21 [Selumetinib] (first compound max 10 µM, 7x7, partner max 10 µM)', 0.15),
  ('Cc1c2c(nn1C)CSCc1cc(n(C)n1)CSc1cc(c3ccccc3c1)OCCCc1c(C(=O)O)n(C)c3c-2c(Cl)ccc13 [AZD5991] + CCN(CCO)CCCOc1ccc2c(Nc3cc(CC(=O)Nc4cccc(F)c4)[nH]n3)ncnc2c1 [AZD2811] (first compound max 1 µM, 7x7, partner max 1 µM)', -0.0164);

Could you now consider this next molecule?
[in] Given the molecule CN(CCO)CC[C@H](CSc1ccccc1)Nc1ccc(S(=O)(=O)NC(=O)c2ccc(N3CCC([C@@H](O)c4ccccc4-c4ccc(Cl)cc4)CC3)cc2)cc1S(=O)(=O)C(F)(F)F [AZD4320] + CN(C)CCCOc1ccc(-c2ccc3ncc4c(c3c2)n(C2CCOCC2)c(=O)n4C)cn1 [AZD0156] (first compound max 1 µM, 7x7, partner max 1 µM) , what is its reported Bliss excess?
[out] 0.024

###

- Tested on: SW1417 (Colorectal Carcinoma)
- protocolNotes: Bliss excess, mean over the matrix (fraction); higher = more synergy
# key: entry, value: Bliss excess
Answer field: number only, no words.

INSERT INTO assay_data (compound, endpointvalue) VALUES
  ('N#Cc1cnc(Nc2cc(NC[C@H]3CNCCO3)c(C(F)(F)F)cn2)cn1 [SRA737] + O=c1[nH]cc(F)c(=O)[nH]1 [5-Fluorouracil] (first compound max 10 µM, 7x7, partner max 20 µM)', 0.0018),
  ('CC1(C)CCC(CN2CCN(c3ccc(C(=O)NS(=O)(=O)c4ccc(NCC5CCOCC5)c([N+](=O)[O-])c4)c(Oc4cnc5[nH]ccc5c4)c3)CC2)=C(c2ccc(Cl)cc2)C1 [Venetoclax] + Cn1cnc2c(F)c(Nc3ccc(Br)cc3Cl)c(C(=O)NOCCO)cc21 [Selumetinib] (first compound max 1 µM, 7x7, partner max 3 µM)', -0.0165),
  ('Cc1c2c(nn1C)CSCc1cc(n(C)n1)CSc1cc(c3ccccc3c1)OCCCc1c(C(=O)O)n(C)c3c-2c(Cl)ccc13 [AZD5991] + C[C@@H](Nc1cc(F)cc(F)c1)c1cc(C(=O)N(C)C)cc2c(=O)cc(N3CCOCC3)oc12 [AZD8186] (first compound max 1 µM, 7x7, partner max 3 µM)', -0.0342),
  ('CN(CCO)CC[C@H](CSc1ccccc1)Nc1ccc(S(=O)(=O)NC(=O)c2ccc(N3CCC([C@@H](O)c4ccccc4-c4ccc(Cl)cc4)CC3)cc2)cc1S(=O)(=O)C(F)(F)F [AZD4320] + C=CCn1c(=O)c2cnc(Nc3ccc(N4CCN(C)CC4)cc3)nc2n1-c1cccc(C(C)(C)O)n1 [AZD1775] (first compound max 1 µM, partner max 1 µM)', -0.106),
  ('CC1(C)CCC(CN2CCN(c3ccc(C(=O)NS(=O)(=O)c4ccc(NCC5CCOCC5)c([N+](=O)[O-])c4)c(Oc4cnc5[nH]ccc5c4)c3)CC2)=C(c2ccc(Cl)cc2)C1 [Venetoclax] + CS(=O)(=O)CCNCc1ccc(-c2ccc3ncnc(Nc4ccc(OCc5cccc(F)c5)c(Cl)c4)c3c2)o1 [Lapatinib] (first compound max 1 µM, 7x7, partner max 10 µM)', -0.0168);

[in] Given the compound CN(CCO)CC[C@H](CSc1ccccc1)Nc1ccc(S(=O)(=O)NC(=O)c2ccc(N3CCC([C@@H](O)c4ccccc4-c4ccc(Cl)cc4)CC3)cc2)cc1S(=O)(=O)C(F)(F)F [AZD4320] + Cc1cc2ncnn2cc1Nc1ncc2c(n1)n(C1CCOCC1)c(=O)n2C [AZD7648] (first compound max 1 µM, 7x7, partner max 10 µM) , what is its reported Bliss excess?
[out] -0.0426

[in] Given the compound C[C@@H](Oc1cc(-c2cnn(C3CCNCC3)c2)cnc1N)c1c(Cl)ccc(F)c1Cl [Crizotinib] + CC1=C(C(=CC=C1)Cl)NC(=O)C2=CN=C(S2)NC3=CC(=NC(=N3)C)N4CCN(CC4)CCO [Dasatinib] (first compound max 10 µM, 7x7, partner max 2 µM) , what is its reported Bliss excess?
[out] 0.0352

[in] Given the compound CN(CCO)CC[C@H](CSc1ccccc1)Nc1ccc(S(=O)(=O)NC(=O)c2ccc(N3CCC([C@@H](O)c4ccccc4-c4ccc(Cl)cc4)CC3)cc2)cc1S(=O)(=O)C(F)(F)F [AZD4320] + C[C@@H](Nc1cc(F)cc(F)c1)c1cc(C(=O)N(C)C)cc2c(=O)cc(N3CCOCC3)oc12 [AZD8186] (first compound max 1 µM, 7x7, partner max 3 µM) , what is its reported Bliss excess?
[out] 0.0346

[in] Given the compound Cn1cnc2c(F)c(Nc3ccc(Br)cc3Cl)c(C(=O)NOCCO)cc21 [Selumetinib] + CC(C)n1c(=O)n(C)c2cnc3cc(F)c(-c4ccc(OCCCN5CCCCC5)nc4)cc3c21 [AZD1390] (first compound max 10 µM, 7x7, partner max 0.3 µM) , what is its reported Bliss excess?
[out] -0.0094
